FYI, the data here is from ChEMBL document CHEMBL4265996.

- Assay system: CD209 antigen (Homo sapiens, UniProt Q9NNX6)
- Sequence (Q9NNX6 whole entry, the tested form may be a part): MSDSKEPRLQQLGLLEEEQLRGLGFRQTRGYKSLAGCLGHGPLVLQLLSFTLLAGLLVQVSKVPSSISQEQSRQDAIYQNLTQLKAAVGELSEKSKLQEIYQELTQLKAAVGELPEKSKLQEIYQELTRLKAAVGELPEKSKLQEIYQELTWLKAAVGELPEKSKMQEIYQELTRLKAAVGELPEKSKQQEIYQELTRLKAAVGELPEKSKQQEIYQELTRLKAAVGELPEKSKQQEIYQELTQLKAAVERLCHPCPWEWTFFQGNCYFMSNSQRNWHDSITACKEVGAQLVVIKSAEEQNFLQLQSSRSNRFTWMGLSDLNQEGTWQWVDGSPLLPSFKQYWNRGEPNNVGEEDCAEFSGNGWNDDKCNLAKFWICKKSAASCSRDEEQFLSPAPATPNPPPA
- Assay overview: Binding affinity to DC-SIGN extracellular domain (unknown origin) expressed in Escherichia coli after 1 hr by ELISA
Where a SMILES comes first, the peptide text is derived from it. The star is where a group is joined. X1 = O=C(/C=N/O[C@H]1O[C@H](CO)[C@@H](O)[C@H](O)[C@@H]1O)*; X2 = O=C(/C=N/O[C@H]1O[C@H](CO)[C@H](O)[C@H](O)[C@H]1O)*
Experimental endpoint: EC50 (×10¹¹ PFU)
Your answer is read as ×10¹¹ PFU, so omit the unit and give the number.

Exercise: If you can, please state the reported EC50 value of CC(C)[C@H](NC(=O)/C=N/O[C@H]1O[C@H](CO)[C@H](O)[C@H](O)[C@H]1O)C(=O)N[C@@H](CCC(=O)O)C(=O)N[C@@H](CCCCN)C(=O)N[C@@H](CC(N)=O)C(=O)N[C@@H](CC(=O)O)C(=O)N[C@@H](CCC(N)=O)C(=O)N[C@@H](CCCCN)C(=O)N[C@H](C(=O)N[C@@H](Cc1ccc(O)cc1)C(=O)N[C@@H](Cc1cnc[nH]1)C(=O)N[C@@H](C)C(N)=O)[C@@H](C)O (X2-VEKNDQKTYHA-NH2) .
Key: 2

Further cases:
Exercise: If you can, please state the reported EC50 value of CC(C)[C@H](NC(=O)/C=N/O[C@H]1O[C@H](CO)[C@@H](O)[C@H](O)[C@@H]1O)C(=O)N[C@@H](CCC(=O)O)C(=O)N[C@@H](CCCCN)C(=O)N[C@@H](CC(N)=O)C(=O)N[C@@H](CC(=O)O)C(=O)N[C@@H](CCC(N)=O)C(=O)N[C@@H](CCCCN)C(=O)N[C@H](C(=O)N[C@@H](Cc1ccc(O)cc1)C(=O)N[C@@H](Cc1cnc[nH]1)C(=O)N[C@@H](C)C(N)=O)[C@@H](C)O (X1-VEKNDQKTYHA-NH2) .
Key: 2.6

====

- Assay overview: Binding affinity to ConA […] after 1 hr by ELISA
Where a SMILES comes first, the peptide text is derived from it. The star is where a group is joined. X1 = O=C(/C=N/O[C@H]1O[C@H](CO)[C@@H](O)[C@H](O)[C@@H]1O)*
# key: entry, value: EC50

Exercise: If you can, please state the reported EC50 value of CC(C)[C@H](NC(=O)/C=N/O[C@H]1O[C@H](CO)[C@@H](O)[C@H](O)[C@@H]1O)C(=O)N[C@@H](CCC(=O)O)C(=O)N[C@@H](CCCCN)C(=O)N[C@@H](CC(N)=O)C(=O)N[C@@H](CC(=O)O)C(=O)N[C@@H](CCC(N)=O)C(=O)N[C@@H](CCCCN)C(=O)N[C@H](C(=O)N[C@@H](Cc1ccc(O)cc1)C(=O)N[C@@H](Cc1cnc[nH]1)C(=O)N[C@@H](C)C(N)=O)[C@@H](C)O (X1-VEKNDQKTYHA-NH2) .
Key: > 1 ×10¹¹ PFU

Further cases:
Exercise: If you can, please state the reported EC50 value of CC(C)C[C@H](NC(=O)[C@H](CC(=O)O)NC(=O)[C@H](Cc1ccc(O)cc1)NC(=O)[C@H](Cc1c[nH]c2ccccc12)NC(=O)/C=N/OCCO[C@H]1O[C@H](CO)[C@@H](O)[C@H](O)[C@@H]1O)C(=O)N[C@@H](Cc1ccc(O)cc1)C(=O)N[C@@H](Cc1cnc[nH]1)C(N)=O (stereo in doubt) .
Key: 2.9 ×10⁹ PFU

Exercise: If you can, please state the reported EC50 value of CC[C@H](C)[C@H](NC(=O)[C@H](CO)NC(=O)[C@H](CO)NC(=O)/C=N/O[C@H]1O[C@H](CO)[C@@H](O)[C@H](O)[C@@H]1O)C(=O)N[C@H](C(=O)N[C@@H](Cc1cnc[nH]1)C(=O)N[C@@H](C)C(=O)N1CCC[C@H]1C(=O)N[C@@H](CO)C(N)=O)[C@@H](C)O (stereo in doubt) .
Key: > 1 ×10¹¹ PFU

Exercise: If you can, please state the reported EC50 value of CSCC[C@H](NC(=O)/C=N/O[C@H]1O[C@H](CO)[C@@H](O)[C@H](O)[C@@H]1O)C(=O)N1CCC[C@H]1C(=O)N[C@@H](C)C(=O)N[C@@H](Cc1c[nH]c2ccccc12)C(=O)N[C@@H](CCCNC(=N)N)C(=O)N[C@@H](Cc1cnc[nH]1)C(=O)N[C@@H](C)C(N)=O (X1-MPAWRHA-NH2) .
Key: > 1 ×10¹¹ PFU
